Taken from the supplement of paper PMC10126150.

- Test system: ATP;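 also: ATP exposure 15 min at 22 °C before imaging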
- method: switch fluorescence ratio, 500 uM ATP over buffer (Cy3 cluster intensity, sum of 5 cycles each) (fold (ratio)); higher = stronger signal-on switching upon ATP binding; sequences stand for … in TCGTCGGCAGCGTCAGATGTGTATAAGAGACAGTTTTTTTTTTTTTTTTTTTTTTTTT…TC
- measurement parameters: aptamer strand: ATP DNA aptamer (quencher-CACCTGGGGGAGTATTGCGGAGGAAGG + anchor), 100 nM annealed; ATP concentration: 500 uM
Hi there, I'd appreciate the recorded switch fluorescence ratio for every entry that follows.
Give bare numbers.

Would you please look over these solved cases?
[
  {
    "sequence": "CAATTACTTT",
    "switch fluorescence ratio": 1.06
  },
  {
    "sequence": "GAGGGATACA",
    "switch fluorescence ratio": 0.99
  },
  {
    "sequence": "CAATATGTGT",
    "switch fluorescence ratio": 0.986
  },
  {
    "sequence": "TAAGGGTTTC",
    "switch fluorescence ratio": 1.02
  },
  {
    "sequence": "TCACTGGTCT",
    "switch fluorescence ratio": 0.985
  }
]

Below are 3 sequences. Give each one its switch fluorescence ratio.
1. AGTGTGAGGC
2. ACTATGACGT
3. GATTCTCAAG

Result block:
1.03
1.04
0.975

Below are 5 sequences. Give each one its switch fluorescence ratio.
1. TTAAAGGGA
2. ATGGTAGAAA
3. AAAAAGGATA
4. TGGGTCTCTA
5. TTTGGGATAC

Result block:
1: 1.01; 2: 1.02; 3: 0.988; 4: 1; 5: 1.24

Below are 2 sequences. Give each one its switch fluorescence ratio.
1. TCAGGGGTT
2. GCAAGTTAGA

Result block:
1.15
1

Below are 8 sequences. Give each one its switch fluorescence ratio.
1. CATCTCCCTG
2. GGTCAGGGTC
3. TATTAAGTAG
4. GACAGGGCGG
5. ACGAGTGAAA
6. ATTGGGTGTG
7. TTTATGACGT
8. CTGGTTACGC

Result block:
1: 1.06; 2: 1.01; 3: 1.03; 4: 0.983; 5: 1.02; 6: 0.987; 7: 1; 8: 1

Below are 6 sequences. Give each one its switch fluorescence ratio.
1. TCGGACCCTA
2. TGACTCGGTG
3. CTTTTAGTGG
4. TATTGGGTAT
5. CTAATGGTAT
6. CGAGTACGGT

Result block:
1.03
0.984
0.971
1.03
0.991
0.979

Below are 3 sequences. Give each one its switch fluorescence ratio.
1. AATTTGAGCC
2. TGAGTGCTCT
3. TTAGAAAGGG

Result block:
1: 0.965; 2: 0.973; 3: 0.977

Below are 7 sequences. Give each one its switch fluorescence ratio.
1. AAATAACTAG
2. CAGGAATGCG
3. GATAAGTATG
4. TTTTACTTGG
5. CGGTTTAAGT
6. GAGCATTTTT
7. GTGGTGGAAA

Result block:
0.99
1.04
0.975
0.993
0.993
0.969
1

Below are 4 sequences. Give each one its switch fluorescence ratio.
1. TGAAATTTAT
2. ACTCTAGTTT
3. GCGGCTGCTG
4. CAGGTGAGTG

Result block:
1. 1.01
2. 1.05
3. 1.04
4. 1.25
